# system under test: full-length beta-Catenin (Uniprot ID P35222) (Homo sapiens, UniProt P35222)
# Construct: 10 nM full-length beta-Catenin (Uniprot ID P35222)
# Sequence (P35222 whole entry): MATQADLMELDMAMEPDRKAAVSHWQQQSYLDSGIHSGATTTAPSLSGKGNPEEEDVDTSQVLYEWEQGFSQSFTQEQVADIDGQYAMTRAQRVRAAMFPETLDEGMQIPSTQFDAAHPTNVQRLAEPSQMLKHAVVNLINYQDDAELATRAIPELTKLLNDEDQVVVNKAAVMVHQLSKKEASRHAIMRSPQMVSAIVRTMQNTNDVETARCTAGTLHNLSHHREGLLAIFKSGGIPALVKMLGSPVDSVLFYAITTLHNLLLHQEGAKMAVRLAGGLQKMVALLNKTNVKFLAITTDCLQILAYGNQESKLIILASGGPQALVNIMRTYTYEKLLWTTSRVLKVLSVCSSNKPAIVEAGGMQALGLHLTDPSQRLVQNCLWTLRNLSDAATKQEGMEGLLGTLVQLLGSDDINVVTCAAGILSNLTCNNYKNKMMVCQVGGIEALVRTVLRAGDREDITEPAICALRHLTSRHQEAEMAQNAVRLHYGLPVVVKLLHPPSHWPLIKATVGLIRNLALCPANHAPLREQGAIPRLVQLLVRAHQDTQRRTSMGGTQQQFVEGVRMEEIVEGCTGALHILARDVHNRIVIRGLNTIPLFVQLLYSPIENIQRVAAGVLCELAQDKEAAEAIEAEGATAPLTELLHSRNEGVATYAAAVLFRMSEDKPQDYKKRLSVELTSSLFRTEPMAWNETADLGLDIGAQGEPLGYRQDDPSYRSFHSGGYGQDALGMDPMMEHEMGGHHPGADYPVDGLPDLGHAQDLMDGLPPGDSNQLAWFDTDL
# test protocol: Fluorescence polarization IC50 (beta-catenin / 5FAM-TCF4 10-53 competition)
# Type: binding
# measurement parameters: read-out: beta-Catenin FP IC50
Quick list: pIC50 per entry.
In plain terms, pIC50 is the concentration in mol/L turned into minus its base-10 logarithm.

A selection of reference data follows.
| compound | pIC50 |
| --- | --- |
| CC(=O)N1CCC[C@]12CC=CCCCC1(CCCC=CCCCOC(=O)N3CC[C@@](C(=O)N[C@@H](Cc4ccccc4F)C(=O)N[C@@H](Cc4csc5ccccc45)C(=O)N[C@@H](CO)C(N)=O)(C3)NC(=O)[C@H](CO)NC(=O)[C@H](Cc3ccccc3)NC(=O)[C@H](C)NC(=O)[C@H](C)NC(=O)[C@H](CC(=O)O)NC(=O)[C@H](CC(=O)O)NC1=O)NC(=O)[C@H](CC(C)(C)C)NC(=O)[C@H](CC(=O)O)NC2=O (stereo partly drawn) | 7.85 |
| CC(=O)N1CCC[C@]12CC=CCCCC1(CCCC=CCCCOC(=O)N3CC[C@@](C(=O)N[C@@H](Cc4ccsc4)C(=O)N[C@@H](Cc4csc5ccccc45)C(N)=O)(C3)NC(=O)[C@H](CC(N)=O)NC(=O)[C@H](Cc3ccccc3)NC(=O)[C@H](C)NC(=O)[C@H](C)NC(=O)[C@H](CCC(=O)O)NC(=O)[C@H](CC(=O)O)NC1=O)NC(=O)[C@H](CC(C)(C)C)NC(=O)[C@H](CC(=O)O)NC2=O (stereo partly drawn) | 8.10 |
| CC(=O)N1CCC[C@]12CC=CCCCC1(CCCC=CCCCCCC[C@@](C)(C(=O)N[C@@H](Cc3ccccc3Cl)C(=O)N[C@@H](Cc3csc4ccccc34)C(=O)N[C@@H](CCC(N)=O)C(N)=O)NC(=O)[C@H]([C@@H](C)O)NC(=O)[C@H](Cc3ccccc3)NC(=O)[C@H](C)NC(=O)[C@H](C)NC(=O)[C@H](CCC(=O)O)NC(=O)[C@H](CC(=O)O)NC1=O)NC(=O)[C@H](CC(C)(C)C)NC(=O)[C@H](CC(=O)O)NC2=O (stereo partly drawn) [I-1089] | 7.92 |
| CC(=O)N1CCC[C@]12CC=CCCCC1(CCCC=CCCCOC(=O)N3CC[C@@](C(=O)N[C@@H](Cc4ccccc4Br)C(=O)N[C@@H](Cc4csc5ccccc45)C(=O)N[C@@H](CCC(N)=O)C(N)=O)(C3)NC(=O)[C@H](CC(N)=O)NC(=O)[C@H](Cc3ccccc3)NC(=O)[C@H](C)NC(=O)[C@H](C)NC(=O)[C@H](CN(CC(=O)O)CC(F)(F)F)NC(=O)[C@H](CC(=O)O)NC1=O)NC(=O)[C@H](CC(C)(C)C)NC(=O)[C@H](CC(=O)O)NC2=O (stereo partly drawn) | 8.15 |
| CC(=O)N1CCC[C@]12CC=CCCCC1(CCCC=CCCCCCC[C@@](C)(C(=O)N[C@@H](Cc3ccccc3Cl)C(=O)N[C@@H](Cc3csc4ccccc34)C(=O)N[C@@H](CCC(N)=O)C(N)=O)NC(=O)[C@H]([C@@H](C)O)NC(=O)[C@H](Cc3ccccc3)NC(=O)[C@H](C)NC(=O)[C@H](C)NC(=O)[C@H](CC(=O)O)NC(=O)[C@H](CC(=O)O)NC1=O)NC(=O)[C@H](CC(C)(C)C)NC(=O)[C@H](CC(=O)O)NC2=O (stereo partly drawn) [I-1087] | 8.05 |
| CCCCCCCC(=O)NCCCC[C@H](NC(=O)[C@H](CCC(N)=O)NC(=O)[C@H](Cc1csc2ccccc12)NC(=O)[C@H](Cc1ccsc1)NC(=O)[C@]12CCN(C1)C(=O)OCCCC=CCCCC1(CCCC=CC[C@]3(CCCN3C(C)=O)C(=O)N[C@@H](CC(=O)O)C(=O)N[C@@H](CC(C)(C)C)C(=O)N1)C(=O)N[C@@H](CC(=O)O)C(=O)N[C@@H](CC(=O)O)C(=O)N[C@@H](C)C(=O)N[C@@H](C)C(=O)N[C@@H](Cc1ccccc1)C(=O)N[C@@H](CC(N)=O)C(=O)N2)C(N)=O (stereo partly drawn) | 7.48 |
| CC(=O)N1CCC[C@]12CC=CCCCC1(CCCC=CCCCOC(=O)N3CC[C@@](C(=O)N[C@@H](Cc4ccsc4)C(=O)N[C@@H](Cc4csc5ccccc45)C(=O)N[C@@H](CO)C(N)=O)(C3)NC(=O)[C@H](Cc3ccccc3)NC(=O)[C@H](Cc3ccccc3)NC(=O)[C@H](C)NC(=O)[C@H](C)NC(=O)[C@H](Cc3cccc(C(=O)O)c3)NC(=O)[C@H](CC(=O)O)NC1=O)NC(=O)[C@H](CC(C)(C)C)NC(=O)[C@H](CC(=O)O)NC2=O (stereo partly drawn) [I-983] | 6.93 |
| CC(=O)N1CCC[C@]12CC=CCCCC1(CCCC=CCCCOC(=O)N3CC[C@@](C(=O)N[C@@H](Cc4ccsc4)C(=O)N[C@@H](Cc4csc5ccccc45)C(=O)N[C@@H](CCC(N)=O)C(N)=O)(C3)NC(=O)[C@H](CC(N)=O)NC(=O)[C@H](Cc3ccccc3)NC(=O)[C@H](CCCCNC(=O)CCC34CC5CC(CC(C5)C3)C4)NC(=O)[C@H](C)NC(=O)[C@H](CC(=O)O)NC(=O)[C@H](CC(=O)O)NC1=O)NC(=O)[C@H](CC(C)(C)C)NC(=O)[C@H](CC(=O)O)NC2=O (stereo partly drawn) | 7.42 |

Which pIC50 value belongs to CC(=O)N1CCC[C@]12CC=CCCCC1(CCCC=CCCCCCC[C@@](C)(C(=O)N[C@@H](Cc3ccccc3Cl)C(=O)N[C@@H](Cc3csc4ccccc34)C(=O)N[C@H](C(N)=O)[C@@H](C)O)NC(=O)[C@H]([C@@H](C)O)NC(=O)[C@H](Cc3ccccc3)NC(=O)[C@H](C)NC(=O)[C@H](C)NC(=O)[C@H](CCC(=O)O)NC(=O)[C@H](CC(=O)O)NC1=O)NC(=O)[C@H](CC(C)(C)C)NC(=O)[C@H](CC(=O)O)NC2=O (stereo partly drawn) ?
7.57
